STATED_CONDITIONS: basic group
Overview of reported pKa across a group of molecules:

MOLECULE | pKa
Fc1cccnc1 | 2.97
COc1ccc2c3c1O[C@@H]1C(=O)CC[C@]4(O)[C@H](C2)N(C)CC[C@@]314 | 8.6
O=C1C[C@H]2OCC(S(=O)(=O)[O-])=C3CN4CC[C@@]56c7ccccc7N1[C@@H]5[C@@H]2[C@@H]3C[C@@H]46 | 7.54
c1cnc2c(c1)ccc1ccc[nH+]c12 | 2.04
CCN(CC)CC(=O)NC1CCc2ccccc21 (centres undefined) | 8.19
NC(=O)c1c2cccc1COCCOCc1ncc([nH]1)COCCOC2 | 5.72
CC(O)CN(C)CCO (centres undefined) | 8.69
C[Si](C)(C)OC1CN(Cc2ccc(F)cc2)C1 | 7.91
CCN(CC)CCNc1ccnc2ccccc12 | 8.95
COCCc1nc(C)c[nH]1 | 8.13
C#CCCCCCCN | 10.7
Nc1ccc2c(c1)CCC2 | 5.35
CN(C)c1ccc(/C=C/c2ccncc2)cc1 | 6.25
CCN(CC)c1ccccc1 | 6.6
COc1ccc(/C=N/c2ncc3nc[nH]c3n2)cc1 | 3.86
Nc1ccc[nH+]c1 | -1.37
CCN(CC)Cc1cc([N+](=O)[O-])c2ccccc2c1[O-] | 11
C/C(N)=N/O | 5.9
C1CCN(CCCN2CCCCC2)CC1 | 10.1
CC(C)Cc1ccc(O)c(CN(C)C)c1 | 8.51
N[C@H]1CCC[C@H]1C(=O)Oc1ccc([N+](=O)[O-])cc1 | 8.36
O=C1N[C@@H](Cc2c[nH+]c[nH]2)C(=O)N[C@H]1Cc1cnc[nH]1 | 5.56
Cc1cc(C)cc(C(=N)c2ccccc2)c1 | 6.82
OC1(c2cc3ccccc3o2)CN2CCC1CC2 (centres undefined) | 8.84
NCCCCc1cccnc1 | 10.2
CC(C)NCCN | 10.6
CC(=O)Oc1cccc2cccnc12 | 3.3
Cc1nccc2c1[nH]c1ccc([N+](=O)[O-])cc12 | 6.24
C#CC(C)Nc1ccccc1 (centres undefined) | 3.25

----------
Overview of reported pKa across a group of compounds:
STATED_CONDITIONS: acidic group

COMPOUND | pKa
CCCCCCCCC(=O)OO | 8.23
Oc1ccc2nc3ccccc3cc2c1 | 8.81
C[N+](C)(C)Cc1cccc(O)c1 | 8.89
COc1ccc(S)cc1 | 6.76
COc1ccc(-c2c(O)c2=O)cc1 | 2.33
COc1ccc(O)c(/N=N/c2nc(C)cs2)c1 | 7.98
CNc1cc[n+](O)cc1 | 3.85
NC(=O)[C@@H](N)Cc1ccccc1 | 7.26
Oc1ccccc1CN1CCCC1 | 10.8
Cc1cccc(C(C)C)c1O | 10.8
O=[N+]([O-])c1cc(-c2ccccc2)ccc1O | 6.73
C/C=C/c1ccc2cccnc2c1O | 11.3
O=C1CS(=O)(=O)NC(=O)N1 | 2.7
OCCC[n+]1cc(Br)c2ccccc2c1 | 12
Cc1nnn(CC(=O)O)n1 | 2.23
O=C(c1ccccc1)c1ccc([O-])[n+](O)c1 | 5.13
CCCCN(C(=O)c1ccc(O)cc1)c1ccc(/N=N/c2ccc3c(c2)OCCOCCOCCOCCOCCO3)cc1 | 9.12
C1COCCOCc2n[nH]c(n2)COCCOCCO1 | 9.55
NS(=O)(=O)c1cc2c(cc1Cl)N=CNS2(=O)=O | 6.7
Cc1ccccc1B(O)O | 9.74
Cc1nc2c(n1C)C(=O)c1nc[nH+]c(O)c1C2=O | 1.15
CCCO | 16
O/C(=C/c1cc[nH+]cc1)c1ccccc1 | 4.19
Cc1ccccc1NC(=S)c1ccccc1 | 10.2
CC(=O)N1CS(=O)C[C@H]1C(=O)O (stereo not given in full) | 2.5
O=[N+]([O-])c1ccc2c(c1)Cc1cc(O)ccc1-2 | 9.01
c1cc[n+]2c(c1)C[n+]1ccccc1C2 | 8.12
O=C(O)[C@@]1(Cl)[C@@H]2CCC[C@@H]21 | 3.03
CN(C)c1ncnc2nc[nH]c12 | 10.5
C/C(=C/Cl)C(=O)O | 3.05
O=[N+]([O-])c1cc2cc(O)ccc2cc1Cl | 8.56
CCCC(O)C(C(=O)O)c1ccc(-c2ccccc2)cc1 (stereo not given) | 4.01
Cn1c[nH+]c(C(=O)O)c1C(=O)O | -0.88
Cc1ccc(I)c(C(=O)O)c1 | 2.95
[N-]=[N+]=Nc1ncnc2nc[nH]c12 | 7.6
Cc1ccc(C)c(C(=O)O)c1 | 3.97
O=C1CSCC(=O)C1 | 4.34
[O-]c1ncc2[nH]cnc2n1 | 11.9
Cc1csc(Cc2ccccc2)[n+]1C | 10.8
O=S(=O)(O)c1ccc(O)cc1 | 4.51
Cc1cc(O)nn1-c1ccccc1 | 12.1
COc1ccc(O)cc1 | 10.2
Cc1ccc2nc3ccc(O)cc3nc2c1 | 7.2
N#CC(C#N)=NNc1ccc([N+](=O)[O-])cc1Cl | 4.15
CC[N+](O)(CC)c1ccccc1 | 4.53
S=C(Nc1ccc(Cl)c(Cl)c1)c1ccccc1 | 9.96
Oc1ccc2cccc(-c3ccccc3)c2c1 | 9.38
CCOc1ccccc1/C=C\C(=O)O | 4.35
CO[C@H]1O[C@H](C(=O)O)[C@H](O)[C@H](O)[C@H]1O | 3.55
O=C(O)C#CBr | 1.9
O=C(O)/C=C/c1cccc([N+](=O)[O-])c1 | 4.08
Cc1cc(C=O)c(O)c(C=O)c1 | 6.2
NC(=N\O)/C(N)=N/O | 11.3
CC(C)(C)N(O)C(=O)c1ccccc1 | 10.1
CC(C)C1=CC2=CC[C@H]3[C@@](C)(CCC[C@]3(C)C(=O)O)[C@@H]2CC1 | 6.4
Cc1cc2cccc(O)c2nc1C | 10.2
CCCCCc1c(-c2ccccc2)nn(-c2ccccc2)c1O | 7.3
COc1c(Cl)cc(Cl)c(O)c1C(=O)NC1CC[NH+](C)CC1 | 6.02
O/N=C/c1ccc(Cl)cc1 | 10.5
O=C(O)/C=C/SC1CCCCC1 | 4.7

Taken from the pKa sets of Baltruschat and Czodrowski (2020).
